Kindly supply the reported MIC values for the records listed here.
- Test system: Mtb H37Ra^lux
- protocol: microbe, parasite or virus in culture
- Type: cell-based, Mycobacterium tuberculosis
- condition context: Mycobacterium tuberculosis, H37RA, 168 h, read-out: Mtb H37Ra^lux IC90 (MIC)
Give a bare numeral; the unit µM is implied.

## Input // fetch MIC; item: Cc1ccc(-n2cc(CN3CCN(C(=O)c4c(C)nc5sc6ccccc6n45)CC3)nn2)cc1C ; system: Mtb H37Ra^lux
## Output 13.5

## Input // fetch MIC; item: Cc1nc2sccn2c1C(=O)N1CCN(Cc2cn(-c3ccccc3Cl)nn2)CC1 ; system: Mtb H37Ra^lux
## Output 62.1

## Input // fetch MIC; item: Cc1nc2sccn2c1C(=O)N1CCN(Cc2cn(-c3cccc([N+](=O)[O-])c3)nn2)CC1 ; system: Mtb H37Ra^lux
## Output 84.8

## Input // fetch MIC; item: CCCCc1cn(CCN2CCN(C(=O)c3c(C)nc4sccn34)CC2)nn1 ; system: Mtb H37Ra^lux
## Output 52

## Input // fetch MIC; item: COc1cccc(-n2cc(CN3CCN(C(=O)c4c(C)nc5sc6ccccc6n45)CC3)nn2)c1 ; system: Mtb H37Ra^lux
## Output 15.4

## Input // fetch MIC; item: Cc1nc2sccn2c1C(=O)N1CCN(CCn2cc(-c3ccccc3)nn2)CC1 ; system: Mtb H37Ra^lux
## Output 54.9

## Input // fetch MIC; item: Cc1nc2sccn2c1C(=O)N1CCN(Cc2cn(-c3ccc([N+](=O)[O-])cc3)nn2)CC1 ; system: Mtb H37Ra^lux
## Output 51.4

Ref: paper PMC9364363
